- measurementNotes: Prediction of PK parameters by QSPR models
measuredMetric: half-life (h)
Numeric answer only, unit h assumed.

Q: I have this compound here, "COc1ccc2c3c1O[C@H]1C[C@@H](O)C=C[C@@]31CCN(C)C2" , and I need its recorded half-life.
Ans: 4.74

###

- Test system: Neuro-2A cells
- measurementNotes: Neurotoxicity test, MTT-dye reduction assay
- Format: cell-based, Murine
- conditionNotes: Mus musculus, N2a, 72-h incubation
The reader will find reported pIC50 values listed item by item below.
Answer as the number alone; pIC50 is minus log10 of concentration in mol/L.

Q: Can you look up pIC50 on Neuro-2A cells for "COc1ccc2c3c1O[C@H]1C[C@@H](O)C=C[C@@]31CCN(Cc1cccc(/C=C/C(=O)c3ccccc3)c1)C2" ?
Ans: 4.92

Q: Can you look up pIC50 on Neuro-2A cells for "COc1ccc2c3c1O[C@H]1C[C@@H](O)C=C[C@@]31CCN(Cc1cccc(C(=O)/C=C/c3cccc(C)c3)c1)C2" ?
Ans: 4.75

Q: Can you look up pIC50 on Neuro-2A cells for "COc1ccc2c3c1O[C@H]1C[C@@H](O)C=C[C@@]31CCN(Cc1cccc(C(=O)/C=C/c3ccc(C)cc3)c1)C2" ?
Ans: 4.61

Q: Can you look up pIC50 on Neuro-2A cells for "COc1ccc2c3c1O[C@H]1C[C@@H](O)C=C[C@@]31CCN(CCCCC(=O)/C=C/c1ccccc1)C2" ?
Ans: 4.51

###

- System: Neuro-2A cells
- measurementNotes: Neurotoxicity test, MTT-dye reduction assay
- Type: cell-based, Murine
- conditionNotes: Mus musculus, N2a, 72-h incubation
measuredMetric: IC50 (µM)
Numeric answer only, unit µM assumed.

Worked cases, IC50 given:
COc1ccc(C(=O)/C=C/c2cccc(CN3CC[C@@]45C=C[C@H](O)C[C@@H]4Oc4c(OC)ccc(c45)C3)c2)cc1 : 7.91
COc1ccc2c3c1O[C@H]1C[C@@H](O)C=C[C@@]31CCN(CCCCC(=O)/C=C/c1ccc3c(c1)OCO3)C2 : 42.9
COc1cccc(/C=C/C(=O)c2cccc(CN3CC[C@@]45C=C[C@H](O)C[C@@H]4Oc4c(OC)ccc(c45)C3)c2)c1 : 25.6

Turning now to a further record.
Q: I have this molecule here, "COc1ccc2c3c1O[C@H]1C[C@@H](O)C=C[C@@]31CCN(CCCCC(=O)/C=C/c1ccc(C)cc1)C2" , and I need its recorded IC50.
Ans: 34.4

###

- studySystem: eeAChE (Electrophorus electricus AChE) (Electrophorus electricus)
- Sequence (O42275 24-633): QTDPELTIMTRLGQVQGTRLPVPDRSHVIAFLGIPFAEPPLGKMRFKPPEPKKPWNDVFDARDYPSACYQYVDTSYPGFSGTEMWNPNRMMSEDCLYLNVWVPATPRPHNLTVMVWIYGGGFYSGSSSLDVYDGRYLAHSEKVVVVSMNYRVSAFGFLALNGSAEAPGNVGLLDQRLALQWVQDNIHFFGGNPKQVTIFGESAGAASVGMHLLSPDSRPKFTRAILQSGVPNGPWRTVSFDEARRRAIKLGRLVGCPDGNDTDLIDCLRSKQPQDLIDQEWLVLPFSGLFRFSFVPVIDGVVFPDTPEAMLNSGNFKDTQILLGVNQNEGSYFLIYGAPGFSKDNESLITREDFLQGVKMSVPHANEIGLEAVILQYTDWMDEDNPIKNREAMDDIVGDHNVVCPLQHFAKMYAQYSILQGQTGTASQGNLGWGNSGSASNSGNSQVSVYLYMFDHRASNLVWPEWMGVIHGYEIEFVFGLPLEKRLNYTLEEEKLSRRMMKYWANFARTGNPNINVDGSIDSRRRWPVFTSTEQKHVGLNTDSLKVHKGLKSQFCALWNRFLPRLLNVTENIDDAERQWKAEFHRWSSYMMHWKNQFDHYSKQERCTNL
- measurementNotes: biochemical
measuredMetric: Times More Active Than GAL

Q: I have this molecule here, "COc1ccc2c3c1O[C@H]1C[C@@H](O)C=C[C@@]31CCN(CCCCC(=O)/C=C/c1ccc(C)cc1)C2" , and I need its recorded Times More Active Than GAL.
Ans: 110

Q: I have this molecule here, "COc1ccc(/C=C/C(=O)c2cccc(CN3CC[C@@]45C=C[C@H](O)C[C@@H]4Oc4c(OC)ccc(c45)C3)c2)cc1" , and I need its recorded Times More Active Than GAL.
Ans: 41

###

- studySystem: eeAChE (Electrophorus electricus AChE) (Electrophorus electricus)
Define the label as TRUE when IC50 is strictly less than 0.04 µM and as FALSE in all remaining cases.

COc1ccc(/C=C/C(=O)CCCCN2CC[C@@]34C=C[C@H](O)C[C@@H]3Oc3c(OC)ccc(c34)C2)cc1 : TRUE
COc1ccc(/C=C/C(=O)c2cccc(CN3CC[C@@]45C=C[C@H](O)C[C@@H]4Oc4c(OC)ccc(c45)C3)c2)cc1 : FALSE
COc1ccc2c3c1O[C@H]1C[C@@H](O)C=C[C@@]31CCN(CCCCC(=O)/C=C/c1ccc3c(c1)OCO3)C2 : TRUE
COc1ccc2c3c1O[C@H]1C[C@@H](O)C=C[C@@]31CCN(CCCCC(=O)/C=C/c1ccc(C)cc1)C2 : TRUE

From here, focus on the item given below.
Q: Input "COc1ccc2c3c1O[C@H]1C[C@@H](O)C=C[C@@]31CCN(CCCCC(=O)/C=C/c1ccccc1)C2" ; condition: IC50 strictly below 0.04 µM. Does it hold?
Ans: FALSE
